Target: T1, Ig-1 and Ig-2 domains fragment of human Tyro3 ECD, His-Strep tagged (human)
T1 construct: also called Ig1-Ig2 fragment
T1 chain: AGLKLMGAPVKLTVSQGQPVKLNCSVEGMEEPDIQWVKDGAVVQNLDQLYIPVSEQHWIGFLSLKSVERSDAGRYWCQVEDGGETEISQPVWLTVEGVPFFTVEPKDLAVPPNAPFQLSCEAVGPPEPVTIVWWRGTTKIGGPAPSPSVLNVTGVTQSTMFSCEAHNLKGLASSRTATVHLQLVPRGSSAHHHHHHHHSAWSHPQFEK
Experiment: sandwich ELISA, Strep-tagged fragment captured on StrepMAB plate, scFv 10 µg/mL (Table 17), anti-FLAG-HRP

| BINDER | binding result |
| --- | --- |
| anti-Tyro3 scFv 2414 (scFv, V domains shown, Tested as a single-chain Fv made in E. coli) VH: EVQLVQSGADVKKPGASLTISCQASGYTFTDYWISWVRQKPGKGLEWMGQINRHASNTMYGPSFQGHVTISADRSTATAYLQWRSLEASDTAMYYCVRSGGATSGGTIPEYYQHWGPGTLVTVSS VL: SYELTQPPSVSVSPGQTARITCSGDALPKKYAYWYQQKSGQAPVLVIYEDWKRASGIPERFSGSSSGTMATLTISGAQVEDEADYYCYSQERKGNYFVFGGGTKLTVL | binds |
| anti-Tyro3 scFv 2413 (scFv, V domains shown, Tested as a single-chain Fv made in E. coli) VH: EVQLVQSGADVKKPGASLTISCQASGYTFTDYWISWVRQKPGKGLEWMGRIHTYQSSTRYGPSFQGHVTISADRSTATAYLQWRSLEASDTAMYYCVRHHSTTTANPYSSWGPGTLVTVSS VL: SYELTQPPSVSVSPGQTARITCSGDALPKKYAYWYQQKSGQAPVLVIYEDDKRLSGIPERFSGSSSGTMATLTISGAQVEDEADYYCYSTEINGNYAVFGGGTKLTVL | binds |
| anti-Tyro3 scFv 2711 (scFv, V domains shown, Tested as a single-chain Fv made in E. coli) VH: EVQLVQSGADVKKPGASLTISCQASGYTFTDYWISWVRQKPGKGLEWMGQIRGQHSSTLYGPSFQGHVTISADRSTATAYLQWRSLEASDTAMYYCVRHGASTSGGTIPEYYQHWGPGTLVTVSS VL: SYELTQPPSVSVSPGQTARITCSGDALPKKYAYWYQQKSGQAPVLVIYEDAKRSSGIPERFSGSSSGTMATLTISGAQVEDEADYYCYSLSDSGNYFVFGGGTKLTVL | binds |
